TESTED_TARGET: Hck (UniProt P08631)
Sequence (P08631 whole entry, looked up): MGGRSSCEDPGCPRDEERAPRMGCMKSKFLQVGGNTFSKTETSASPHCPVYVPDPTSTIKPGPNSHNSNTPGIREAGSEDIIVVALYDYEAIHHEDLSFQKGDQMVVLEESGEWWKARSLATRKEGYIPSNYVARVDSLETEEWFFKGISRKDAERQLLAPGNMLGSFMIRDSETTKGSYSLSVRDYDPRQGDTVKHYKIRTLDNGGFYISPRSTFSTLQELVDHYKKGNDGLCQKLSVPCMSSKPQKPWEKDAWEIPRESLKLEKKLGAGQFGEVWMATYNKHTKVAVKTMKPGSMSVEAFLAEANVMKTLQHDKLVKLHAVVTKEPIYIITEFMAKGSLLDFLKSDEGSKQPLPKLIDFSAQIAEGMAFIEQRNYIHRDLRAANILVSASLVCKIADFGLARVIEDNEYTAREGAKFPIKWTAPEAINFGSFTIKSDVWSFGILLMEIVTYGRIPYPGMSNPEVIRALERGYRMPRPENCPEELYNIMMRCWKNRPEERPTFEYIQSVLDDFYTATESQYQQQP
MEASUREMENT_NOTES: phosphorylation enrichment, bacterial display (enrichment ratio); higher = better substrate or ligand; peptides without Tyr show the background
Task for the reader: assign each of the following sequences its reported phosphorylation enrichment.
Answers are plain numbers.

INSERT INTO results (residue_codes, tested_target, val) VALUES
  ('GILDVYIFLGP [GAA_Y340]', 'Hck (UniProt P08631)', 0.676),
  ('QGQHWYSSSDT [CASP10_Y9_K14T]', 'Hck (UniProt P08631)', 0.573);

Read the next record carefully.
What value of phosphorylation enrichment has been reported for the following sequence? HNLPIYEGFAL [ACTA1_Y168_V165L_YF] 12.8

###

System: c-Src
MEASUREMENT_NOTES: phosphorylation enrichment, bacterial display (enrichment ratio); higher = better substrate or ligand; peptides without Tyr show the background
MEASUREMENT_KIND: phosphorylation enrichment
Numbers only.

Solved entries:
INSERT INTO results (residue_codes, val) VALUES
  ('ADNQRYAFMPL [TMEM87B_Y460_N456D]', 0.452),
  ('GEPLSYTRFSL [TFRC_Y20]', 0.83);

Next:
Item under review: FHKALYTVRTY [PDE6C_Y266_S270T] . Reported phosphorylation enrichment? 0.596

###

Tested on: Fer (mouse)
MEASUREMENT_NOTES: phosphorylation enrichment, bacterial display (enrichment ratio); higher = better substrate or ligand; peptides without Tyr show the background
Exercise: state measured phosphorylation enrichment for each of the sequences provided.
One number for each entry.

Solved cases below.
INSERT INTO measurements (residue_codes, tested_target, val) VALUES
  ('DGTESYLTVSS [PLK1_Y462]', 'Fer (mouse)', 0.487),
  ('CTTNHYNFMCN [TP53_Y234_I232N_YF]', 'Fer (mouse)', 0.486);

Lab note: each sequence below needs its phosphorylation enrichment filled in.
1. APSGNYVACGG [GNB1_Y111]
2. ADNQRYAFMPL [TMEM87B_Y460_N456D]

[0.513, 0.502]

###

Record form. Attribute: SH2 binding enrichment. Fill in for each entry.
TESTED_TARGET: SHP2-C SH2;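 further: peptide library displayed on the E. coli surface as eCPX fusions, selected cells deep-sequenced, score is each peptide's frequency after selection divided by its frequency in the input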
MEASUREMENT_NOTES: SH2 binding enrichment of the phosphorylated peptide, bacterial display (enrichment ratio); higher = better substrate or ligand; peptides without Tyr show the background

INSERT INTO results (residue_codes, val) VALUES
  ('RKIMGYSIRTI [IDS_Y490_I485R]', 0.718);

Go through the list and state SH2 binding enrichment for each entry.
1. MARDIYRASYY [ALK_Y1278]
2. NLTLKYPIEHG [ACTA1_Y71_I66N]
3. KMKGDYFRFLA [YWHAG_Y130_YF]
4. ISHVAYCVLGK [TRRAP_Y892_R893C]
5. REGDKYVSHGA [ASS1_Y113_A111D]
6. KIVYVYVKKRS [DNAI2_Y7_E2K]
7. NTCNRYCRDEI [ITGB3_Y660]

1: 0.708; 2: 0.718; 3: 1.6; 4: 1.53; 5: 1.01; 6: 0.848; 7: 0.658

Working through the 6 sequences below one at a time, give SH2 binding enrichment for each.
1. IENKLYGTSDP [RET_Y1062_M1064T]
2. CRAVKYLQMVD [AVPR2_Y117_G122D]
3. GGTTLYPGIAD [ACTC1_Y308_M307L]
4. YTFTSYYMHWV [IGHV1-46_Y51]
5. RRSKMYLKTRS [LPL_Y329_S325R]
6. GSCQEYTGAPF [NAXD_Y85_G81S_YF]

0.604
0.755
0.648
1.1
0.647
0.822
